Quick reference: TGI of the listed items.
- Tested on: UO-31 renal
- test.method.notes: NCI tumour cell line growth inhibition, 48 h

Q. Find the recorded TGI belonging to CC(C)C1OC2(C)OC(=N)C1(C#N)C(C#N)(C#N)C2C (stereo unspecified) and report it.
A. > 100 µM

====

- Test system: ACHN renal
- test.method.notes: NCI tumour cell line growth inhibition, 48 h
molecules and their reported TGI
Please give a number only; it is taken to be in µM.

Consider the following illustrative entries.
# query.smiles, TGI [µM]
records = [
    ("CCCCCCCCCCCCCCCC[N+](C)(C)CCN(Cc1ccc(OC)cc1)c1ncccn1", 32.9),
    ("C[C@]12CC[C@@H]3c4ccc(O)cc4CC[C@H]3[C@@H]1CC[C@@H]2NS(=O)(=O)c1cccc(C(F)(F)F)c1", 11.4),
]

Would you kindly look at the next entry?
Q. Which value of TGI has been reported for "COc1ccc(C(=O)COc2cccc(/C=C3\CSc4ccccc4C3=O)c2)cc1" in the records?
A. 3.86

====

Listing of recorded TGI by entry.
- Tested on: HL-60(TB) leukemia
- test.method.notes: NCI tumour cell line growth inhibition, 48 h
Return type: number; implicit unit µM.

# query.smiles, observed.value
rows = [
    ("COc1ccc(N(C)Sc2ccccc2)cc1", 52.3),
    ("O=C1C=CC(=O)c2c(NCC3CC3)ccc(NCC3CC3)c21", 31.8),
    ("Cc1nc(Nc2ccc(F)cc2)c2sc(=S)n(-c3ccc(F)cc3)c2n1", 74.1),
]

Q. Please give the measured TGI for this compound: "Cn1ccc2c(c1=O)C(=O)c1nccc3c1c-2nc1ccccc13"
A. 5.03

Q. Which TGI reading was recorded for the compound "CC1=C(C(=O)Nc2cccc(Cl)c2)C(c2ccc([N+](=O)[O-])cc2)C(C(=O)Nc2cccc(Cl)c2)=C(C)N1" ?
A. 47.4

Q. Give the measured TGI of "C/C([O-])=C1\Cc2ccccc2C1=O.C/C([O-])=C1\Cc2ccccc2C1=O.CC[O-].CC[O-].[Ti+4]" .
A. 50.8

====

- Test system: UACC-62 melanoma
- test.method.notes: NCI tumour cell line growth inhibition, 48 h
Recorded TGI, one value per entry.
Please give a number only; it is taken to be in µM.

# query.smiles, observed.value
measured = [
    ("C[C@]12CC[C@@H]3c4ccc(O)cc4CC[C@H]3[C@@H]1CC[C@@H]2NS(=O)(=O)c1cccc(C(F)(F)F)c1", 10.7),
]

Now, please, on to the next compound.
Q. I am curious: what TGI value has been reported for "COc1ccc(-c2cc(-c3ccccc3)nc(N3CCN(CCNc4ccnc5cc(Cl)ccc45)CC3)n2)cc1" ?
A. 11.2

====

List of TGI values.
- Test system: LOX IMVI melanoma
- test.method.notes: NCI tumour cell line growth inhibition, 48 h

Consider the following illustrative entries.
# compound, TGI
measured = [
    ("CCCCCCCCC(=O)N(C)C1C2CN3CCC(O2)C13 (stereo not given)", "> 100 µM"),
    ("CCN(CC)c1ccc(C2SCC(=O)N2c2ccc(NC(=O)c3ccc(N4C(=O)CSC4c4ccc(N(CC)CC)cc4)cc3)cc2)cc1 (stereo not given)", "> 100 µM"),
    ("CCOC(=O)c1sc2nc(SC)nc3c2c1NCN3c1ccc2c(c1)OCCCO2", "> 100 µM"),
    ("c1ccc(C(c2ccccc2)[P+](c2ccccc2)(c2ccccc2)c2ccccc2)cc1", "1.52 µM"),
]

Q. Which TGI is reported with LOX IMVI melanoma for this entry: "COc1ccc(-c2nnc(SCC(=O)Nc3ccc(/C(C)=N\O)cc3)n2-c2ccccc2)cc1OC" ?
A. > 100 µM

The measured values listed here are drawn from PubChem BioAssay (NCI).
